# Tested on: ZR-75-1 human breast cancer cells
# Measurement Notes: Single agent growth inhibition (Cell Titer-Glo proliferation)
# Assay type: cell-based
# Experimental Context: Experiment 2, narrow concentration range, 72 hours
# Protocol: The growth inhibitory activities of two test agents, eribulin and entinostat, were determined alone and in combination against 12 human breast cancer cell lines (Table 1). […] Fa, the fraction of affected drug targets at a given drug concentration, was calculated from the fractional decrease. […] Finally, in Experiment 3, we determined the antiproliferative activity of the study agents in combination against the panel of human tumor cell lines. […]
Quantity Measured: pIC50
// returns pIC50 (minus log10 of molar concentration), number only

Task: Provide one value: measured pIC50 of Nc1ccccc1NC(=O)c1ccc(CNC(=O)OCc2cccnc2)cc1 [entinostat]
Output: 5.31

====

# System: T-47D human breast cancer cells
# Measurement Notes: Single agent growth inhibition (Cell Titer-Glo proliferation)
# Format: cell-based
# Experimental Context: T47D, Experiment 1, wide concentration range, 72 hours, read-out: Wide range IC50
# Protocol: The growth inhibitory activities of two test agents, eribulin and entinostat, were determined alone and in combination against 12 human breast cancer cell lines (Table 1). […] Fa, the fraction of affected drug targets at a given drug concentration, was calculated from the fractional decrease. […] Finally, in Experiment 3, we determined the antiproliferative activity of the study agents in combination against the panel of human tumor cell lines. […]
Quantity Measured: pIC50
// returns pIC50 (minus log10 of molar concentration), number only

Task: Provide one value: measured pIC50 of Nc1ccccc1NC(=O)c1ccc(CNC(=O)OCc2cccnc2)cc1 [entinostat]
Output: 5.80
